- Experimental system: Substance-P receptor (Homo sapiens)
- Sequence (P25103 whole entry): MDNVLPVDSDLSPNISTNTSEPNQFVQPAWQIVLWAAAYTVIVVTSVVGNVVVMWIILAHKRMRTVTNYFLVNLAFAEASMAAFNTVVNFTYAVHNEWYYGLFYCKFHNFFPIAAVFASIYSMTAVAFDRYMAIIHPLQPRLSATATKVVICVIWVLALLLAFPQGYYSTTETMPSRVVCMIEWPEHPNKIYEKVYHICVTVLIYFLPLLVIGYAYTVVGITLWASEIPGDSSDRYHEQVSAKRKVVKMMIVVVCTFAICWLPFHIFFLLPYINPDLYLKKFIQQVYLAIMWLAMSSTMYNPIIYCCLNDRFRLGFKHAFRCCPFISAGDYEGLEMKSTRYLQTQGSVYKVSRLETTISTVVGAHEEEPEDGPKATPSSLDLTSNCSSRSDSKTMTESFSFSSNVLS
- Assay overview: Displacement of [3H]Sar-Met substance P from human recombinant NK1 receptor expressed in CHO cells
pKi: −log10 of the molar value.
Parameter measured: pKi

Recorded pKi, per entry:
Compound | pKi
C[C@@H](OC[C@]1(c2ccccc2)C[C@@](N)(C(N)=O)C1)c1cc(C(F)(F)F)cc(C(F)(F)F)c1 | 9.37
C[C@@H](OCC1(c2ccccc2)CC(NCc2ccccc2)C1)c1cc(C(F)(F)F)cc(C(F)(F)F)c1 (stereo not given in full) | 9.52
CC(=O)N[C@H]1C[C@@](CO[C@H](C)c2cc(C(F)(F)F)cc(C(F)(F)F)c2)(c2ccccc2)C1 | 10.00

a = C[C@@H](OC[C@]1(c2ccccc2)C[C@](N)(C(=O)N2CCCCC2)C1)c1cc(C(F)(F)F)cc(C(F)(F)F)c1
b = C[C@@H](OCC1(c2ccccc2)CC(NCc2n[nH]c(O)n2)C1)c1cc(C(F)(F)F)cc(C(F)(F)F)c1 (stereo not given in full)
c = C[C@@H](OCC1(c2ccccc2)CC(N)C1)c1cc(C(F)(F)F)cc(C(F)(F)F)c1 (stereo not given in full)
d = C[C@@H](OCC1(c2ccccc2)CC(=O)C1)c1cc(C(F)(F)F)cc(C(F)(F)F)c1
hey, can you rank those compounds up there by pKi? biggest number first please Give the order by naming the labels one after another as requested.
c, b, a, d
(c: 10.70, b: 9.30, a: 8.89, d: 8.62)

A = CC(=O)N[C@H]1C[C@](CO[C@H](C)c2cc(C(F)(F)F)cc(C(F)(F)F)c2)(c2ccccc2)C1
B = C[C@@H](OC[C@]1(c2ccccc2)C[C@](N)(C(=O)N2CCCC2)C1)c1cc(C(F)(F)F)cc(C(F)(F)F)c1
For the pair A and B , which member has the lower pKi number? State your choice using its label.
B
(B: 8.89, A: 9.40)

* * *

- Experimental system: Substance-P receptor (Homo sapiens)
- Assay overview: Displacement of [3H]Sar-Met substance P from human recombinant NK1 receptor expressed in CHO cells
Parameter measured: Ki (nM)

Compound | Ki / nM
CNC(=O)[C@]1(N)C[C@](CO[C@H](C)c2cc(C(F)(F)F)cc(C(F)(F)F)c2)(c2ccccc2)C1 | 0.5
CNC(=O)[C@]1(N)C[C@@](CO[C@H](C)c2cc(C(F)(F)F)cc(C(F)(F)F)c2)(c2ccccc2)C1 | 1
C[C@@H](OC[C@]1(c2ccccc2)C[C@H](N2CCCC2=O)C1)c1cc(C(F)(F)F)cc(C(F)(F)F)c1 | 0.3

A = C[C@@H](OC[C@]1(c2ccccc2)C[C@@H](N2CCCC2=O)C1)c1cc(C(F)(F)F)cc(C(F)(F)F)c1 (mixture of isomers)
B = C[C@@H](OC[C@]1(c2ccccc2)C[C@](N)(C(N)=O)C1)c1cc(C(F)(F)F)cc(C(F)(F)F)c1
C = C[C@@H](OC[C@]1(c2ccccc2)C[C@](N)(C(=O)N(C)C)C1)c1cc(C(F)(F)F)cc(C(F)(F)F)c1
Provide the items ranked by increasing Ki. I'd appreciate it if you listed the labels in the requested order.
A, B, C
(A: 0.4 nM, B: 1 nM, C: 3.3 nM)
